System: M14 melanoma
Test: NCI tumour cell line growth inhibition, 48 h
Let's look at some molecules and their measured TGI.

[[record]]
molecule = "Cc1occ2c1C(=O)CC1C2[C@@H](O)CC2C(C)(C)CCC[C@]12C (some centres undefined)"
assayed_system = "M14 melanoma"
measured_endpoint = "TGI"
result_value = "> 100 µM"

[[record]]
molecule = "COC/N=C(/N)NC#N"
assayed_system = "M14 melanoma"
measured_endpoint = "TGI"
result_value = "> 100 µM"

[[record]]
molecule = "C#CCSc1nc(N)c2ncn(C3OC(COP(=O)(O)O)C(O)C3O)c2n1 (centres undefined)"
assayed_system = "M14 melanoma"
measured_endpoint = "TGI"
result_value = "> 239 µM"

[[record]]
molecule = "O=C1c2ccccc2C(=O)N1C1(C(=O)NC2(C(=O)O)CCCC2)CCCC1"
assayed_system = "M14 melanoma"
measured_endpoint = "TGI"
result_value = "> 100 µM"


[in] Provide value of TGI for this record tested with M14 melanoma: `Cc1cc(C)nc(NS(=O)(=O)c2ccc(NC(=O)c3cccn4c(=O)c5ccccc5nc34)cc2)n1`
[out] > 100 µM

[in] Provide value of TGI for this record tested with M14 melanoma: `CC(C)=Nn1cnc(C(=N)C#N)c1N`
[out] > 100 µM

[in] Provide value of TGI for this record tested with M14 melanoma: CN(C)C(=O)C(F)(F)C(c1ccc(Br)cc1)C1C(=O)N(C)C(=O)N(C)C1=O (centres undefined)
[out] > 100 µM

[in] Provide value of TGI for this record tested with M14 melanoma: `C[C@@H]1CC[C@@H](C)[C@](C)(CCc2ccoc2)C/C=C\C=C/1C(=O)O`
[out] > 50 µM

[in] Provide value of TGI for this record tested with M14 melanoma: `C=C(Br)CNCC(=C)Br`
[out] > 100 µM
